Numbers sourced from patent US20150272952A1.

Test system: HCC202
Test: Cell growth inhibition assay (Cell Titer Glo), HCC202
Type: cell-based, Human
Conditions: Homo sapiens, 72 h; HCC202, PIK3CA E545K, 3 days, single agent
recorded.endpoint: pIC50
Recall that pIC50 is obtained by taking minus log10 of the concentration measured in molar.

input: For the molecule shown here, CS(=O)(=O)CCNCc1ccc(-c2ccc3ncnc(Nc4ccc(OCc5cccc(F)c5)c(Cl)c4)c3c2)o1 [Compound A, reference compound] , give the reported pIC50.
output: 5.62

input: For the molecule shown here, Cn1ncc(Cl)c1-c1cc(C(=O)N[C@H](CN)Cc2ccc(F)c(F)c2)oc1Cl , give the reported pIC50.
output: 6.04
